target: Beclin 1/Bcl-2 interaction (Homo sapiens (Human)); experiment: Beclin 1/Bcl-2 AlphaLISA assay (dose-response)
Sequence (P10415 1-218): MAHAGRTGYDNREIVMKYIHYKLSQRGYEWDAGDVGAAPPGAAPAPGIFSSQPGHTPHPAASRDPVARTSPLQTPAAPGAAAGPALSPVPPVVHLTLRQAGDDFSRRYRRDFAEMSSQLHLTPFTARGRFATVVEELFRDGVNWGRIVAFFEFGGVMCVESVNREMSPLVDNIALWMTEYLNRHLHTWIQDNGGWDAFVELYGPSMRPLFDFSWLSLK
Can you tell me pIC50 for the items I'm about to list?
When answering, recall that pIC50 equals minus log10 of the concentration in mol/L, and write that number alone.

query: Bench note: what pIC50 did COC(=O)Nc1ccc(C2=NN(C(=O)c3ccc(Br)cc3)C(c3ccccc3)C2)cc1 (stereo not drawn) show?
result: 5.00

query: CS(=O)(=O)Nc1ccc(C2=NN(C(=O)c3ccc(C(F)(F)F)cc3)C(c3ccco3)C2)cc1 (stereo not drawn) , same question.
result: 5.55

query: COC(=O)Nc1ccc(C2=NN(C(=O)c3ccc(C)cc3)C(c3ccco3)C2)cc1 (stereo not drawn) , same question.
result: 5.74

query: CC(C)NC(=O)Nc1ccc(C2=NN(C(=O)c3ccc(Br)cc3)C(c3ccccc3)C2)cc1 (stereo not drawn) [lqr-9-076] , same question.
result: 6.46

query: CC(C)(C)OC(=O)Nc1ccc(C2=NN(C(=O)c3ccc(Br)cc3)C(c3ccoc3)C2)cc1 (stereo not drawn) , same question.
result: 5.39

query: CS(=O)(=O)Nc1ccc(C2=NN(C(=O)c3ccc(Cl)cc3)C(c3ccco3)C2)cc1 (stereo not drawn) , same question.
result: 5.56

query: CS(=O)(=O)Nc1ccc(C2=NN(C(=O)c3ccc(C#N)cc3)C(c3ccco3)C2)cc1 (stereo not drawn) , same question.
result: 5.14

query: CC(C)(C)OC(=O)Nc1ccc(C2=NN(C(=O)c3ccc(Br)cc3)C(c3ccccn3)C2)cc1 (stereo not drawn) , same question.
result: 6.34

query: CC(C)(C)OC(=O)Nc1cccc(C2=NN(C(=O)c3ccc(Br)cc3)C(c3ccccc3)C2)c1 (stereo not drawn) , same question.
result: 4.92

query: CC(C)(C)OC(=O)Nc1ccc(C2=NN(C(=O)c3ccc(Br)cc3)C(c3cccnc3)C2)cc1 (stereo not drawn) , same question.
result: 5.74

query: CC(C)(C)NC(=O)Nc1ccc(C2=NN(C(=O)c3ccc(Br)cc3)C(c3ccccc3)C2)cc1 (stereo not drawn) , same question.
result: 5.04

query: CS(=O)(=O)Nc1ccc(C2=NN(C(=O)c3ccc([N+](=O)[O-])cc3)C(c3ccco3)C2)cc1 (stereo not drawn) , same question.
result: 5.78

query: CC(C)(C)OC(=O)Nc1ccc(C2=NN(C(=O)c3ccc([N+](=O)[O-])cc3)C(c3ccco3)C2)cc1 (stereo not drawn) , same question.
result: 5.91

query: CC(C)(C)OC(=O)Nc1ccc(C2=NN(C(=O)c3ccc(Br)cc3)C(c3ccccc3)C2)cc1 (stereo not drawn) , same question.
result: 6.56

query: Cc1ccc(C(=O)N2N=C(c3ccc(NC(=O)OC(C)(C)C)cc3)CC2c2ccco2)cc1 (stereo not drawn) , same question.
result: 5.54

query: CC(C)(C)OC(=O)Nc1ccc(C2=NN(C(=O)c3ccc([N+](=O)[O-])cc3)C(c3ccccc3)C2)cc1 (stereo not drawn) , same question.
result: 6.46

query: CN(C)C(=O)Nc1ccc(C2=NN(C(=O)c3ccc(Br)cc3)C(c3ccccc3)C2)cc1 (stereo not drawn) , same question.
result: 5.62

query: CC(C)COC(=O)Nc1ccc(C2=NN(C(=O)c3ccc(Br)cc3)C(c3ccccc3)C2)cc1 (stereo not drawn) , same question.
result: 6.74

query: COc1ccc(C(=O)N2N=C(c3ccc(NS(C)(=O)=O)cc3)CC2c2ccco2)cc1 (stereo not drawn) , same question.
result: 5.00

query: CC(C)(C)OC(=O)Nc1ccc(C2=NN(C(=O)c3ccc(Br)cc3)C(c3ccco3)C2)cc1 (stereo not drawn) , same question.
result: 6.01

query: CNC(=O)Nc1ccc(C2=NN(C(=O)c3ccc(Br)cc3)C(c3ccccc3)C2)cc1 (stereo not drawn) , same question.
result: 5.26

----------
target: Beclin 1/Bcl-2 interaction (Homo sapiens (Human)); test: Beclin 1/Bcl-2 AlphaLISA assay (dose-response)
pIC50: −log10 of the molar value.
Can you tell me pIC50 for the items I'm about to list?

query: Bench note: what pIC50 did CC(C)(C)OC(=O)Nc1ccc(-c2cc(-c3ccccc3)n(C(=O)c3ccc(Br)cc3)n2)cc1 show?
result: < 5.00

query: CC(C)(C)OC(=O)Nc1ccc(-c2cc(-c3ccccc3)[nH]n2)cc1 , same question.
result: < 5.00

query: C=CCOC(=O)Nc1ccc(C2=NN(C(=O)c3ccc(Br)cc3)C(c3ccccc3)C2)cc1 (stereo not drawn) , same question.
result: > 6.81

query: O=C(c1ccc(Br)cc1)N1N=C(c2ccco2)CC1c1ccccc1 (stereo not drawn) , same question.
result: < 5.00

query: CC(C)(C)OC(=O)n1cccc1C1=NN(C(=O)c2ccc(Br)cc2)C(c2ccccc2)C1 (stereo not drawn) , same question.
result: < 5.00

query: CC(C)(C)OC(=O)Nc1ccc(C2=NN(C(=O)OC(C)(C)C)C(c3ccccc3)C2)cc1 (stereo not drawn) , same question.
result: < 5.00
